Biological target: T1, PKC-ε, purified isoform (UniProt Q02156 1-737)
T1 construct: also called PKC-epsilon; epsilon
T1 sequence (looked up): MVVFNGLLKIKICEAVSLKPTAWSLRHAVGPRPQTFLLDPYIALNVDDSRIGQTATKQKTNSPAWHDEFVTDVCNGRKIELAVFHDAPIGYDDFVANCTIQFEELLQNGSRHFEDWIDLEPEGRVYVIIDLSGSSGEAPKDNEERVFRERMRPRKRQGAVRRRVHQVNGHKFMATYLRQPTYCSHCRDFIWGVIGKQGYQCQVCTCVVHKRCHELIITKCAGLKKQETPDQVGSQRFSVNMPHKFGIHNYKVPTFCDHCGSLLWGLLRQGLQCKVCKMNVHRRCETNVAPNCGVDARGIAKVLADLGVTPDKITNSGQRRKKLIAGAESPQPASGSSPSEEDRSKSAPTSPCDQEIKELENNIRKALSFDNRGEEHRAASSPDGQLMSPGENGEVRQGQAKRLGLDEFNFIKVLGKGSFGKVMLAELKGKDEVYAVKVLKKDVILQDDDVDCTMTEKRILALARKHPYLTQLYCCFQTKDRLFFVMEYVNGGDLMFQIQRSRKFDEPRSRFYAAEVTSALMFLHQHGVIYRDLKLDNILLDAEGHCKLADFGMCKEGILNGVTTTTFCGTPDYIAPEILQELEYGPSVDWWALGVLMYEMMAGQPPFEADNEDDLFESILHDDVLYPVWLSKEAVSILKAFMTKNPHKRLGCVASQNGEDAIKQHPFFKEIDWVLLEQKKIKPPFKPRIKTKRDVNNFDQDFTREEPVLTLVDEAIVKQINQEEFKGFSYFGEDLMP
Assay: competition ELISA on coated purified PKC-ε vs anti-PKC ε antibody; PRE 50 µM
Label 0 if relative binding capacity falls below 8%; label 1 in every other case.

[[record]]
binder = "Ac-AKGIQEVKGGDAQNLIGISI-NH2 (also called peptide recognition element 3) [PRE 3]"
class = 1

[[record]]
binder = "Ac-KDAQNLI-NH2 (Ac-KDAQNLI-NH2; also called peptide recognition element 12) [PRE 12]"
class = 1

[[record]]
binder = "Ac-RDAQNLIGISI-NH2 (also called peptide recognition element 11) [PRE 11]"
class = 0

[[record]]
binder = "Ac-RDAQNLI-NH2 (Ac-RDAQNLI-NH2; also called peptide recognition element 13) [PRE 13]"
class = 0

